Attribution: patent US20250092017A1

Let's look at some compounds and their measured log10 GI50.
# TESTED_SYSTEM: Ba/F3-FL-EGFR-L858R-T790M-C797S (Homo sapiens, UniProt P00533, T790M/C797S/L858R, cells depend on it)
# Sequence (P00533 whole entry T790M/C797S/L858R): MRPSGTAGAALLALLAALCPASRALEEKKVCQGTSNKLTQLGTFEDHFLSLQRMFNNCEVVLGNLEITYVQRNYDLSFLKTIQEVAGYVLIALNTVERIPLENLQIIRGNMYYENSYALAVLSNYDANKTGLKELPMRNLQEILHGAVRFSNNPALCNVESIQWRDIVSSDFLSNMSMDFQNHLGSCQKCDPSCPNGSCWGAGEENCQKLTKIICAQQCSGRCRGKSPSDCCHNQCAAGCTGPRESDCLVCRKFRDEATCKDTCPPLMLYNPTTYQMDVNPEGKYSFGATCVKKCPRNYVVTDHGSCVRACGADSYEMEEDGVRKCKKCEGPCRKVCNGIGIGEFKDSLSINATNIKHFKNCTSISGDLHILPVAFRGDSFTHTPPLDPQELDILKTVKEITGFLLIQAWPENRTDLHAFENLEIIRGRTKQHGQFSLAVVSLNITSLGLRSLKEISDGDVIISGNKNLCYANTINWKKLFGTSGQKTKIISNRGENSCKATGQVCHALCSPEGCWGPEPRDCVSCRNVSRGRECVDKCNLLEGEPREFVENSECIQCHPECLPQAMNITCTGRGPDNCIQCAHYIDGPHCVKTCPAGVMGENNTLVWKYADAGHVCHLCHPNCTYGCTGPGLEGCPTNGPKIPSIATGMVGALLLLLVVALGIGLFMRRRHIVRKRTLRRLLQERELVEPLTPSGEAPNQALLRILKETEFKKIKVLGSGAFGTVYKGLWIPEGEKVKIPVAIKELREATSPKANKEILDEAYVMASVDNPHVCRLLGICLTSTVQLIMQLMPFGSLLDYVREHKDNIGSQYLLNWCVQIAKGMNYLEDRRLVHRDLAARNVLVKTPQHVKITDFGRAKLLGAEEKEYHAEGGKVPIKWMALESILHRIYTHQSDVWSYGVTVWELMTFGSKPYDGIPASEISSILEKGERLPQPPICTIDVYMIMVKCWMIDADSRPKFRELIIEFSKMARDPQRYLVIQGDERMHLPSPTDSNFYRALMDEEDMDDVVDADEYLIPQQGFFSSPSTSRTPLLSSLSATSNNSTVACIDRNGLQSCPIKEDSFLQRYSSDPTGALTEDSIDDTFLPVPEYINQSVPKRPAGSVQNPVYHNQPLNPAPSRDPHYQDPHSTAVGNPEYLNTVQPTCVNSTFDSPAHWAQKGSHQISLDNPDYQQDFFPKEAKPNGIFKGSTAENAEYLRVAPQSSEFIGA
# PROTOCOL_DESCRIPTION: CellTiter-Glo proliferation, Ba/F3-FL-EGFR-L858R-T790M-C797S
# Format: cell-based
# EXPERIMENTAL_CONDITIONS: 72 hours, read-out: Ba/F3-FL-EGFR-L858R-T790M-C797S IC50/nM
QUANTITY_NAME: log10 GI50 (log10 of the value in nM)

> print(dat)
                                    compound  meas.value
 1  CC(C)c1ccc(N2CC(CS(C)(=O)=O)C2)c2cnc(Nc3ccnc(-c4cnn(CC(F)(F)F)c4)n3)cc12 [Compound H11]        2.09
 2  COCCS(=O)(=O)N(C)C1CN(c2ccc(C(C)C)c3cc(Nc4ccnc(N5CCC(OC)C(F)C5)n4)ncc23)C1 (stereo not shown) [Compound P49]        1.58
 3  CC(=O)NC1CN(c2ccc(C(C)C)c3cc(Nc4ccnc(N5CCC(O)C(F)C5)n4)ncc23)C1 (stereo not shown) [Compound P35]        3.22
 4  CCN(C1CN(c2ccc(C(C)C)c3cc(Nc4ccnc(N5CCC(OC)C(F)C5)n4)ncc23)C1)S(C)(=O)=O (stereo not shown) [Compound P31]        1.26
 5  CCS(=O)(=O)NC1CN(c2ccc(C(C)C)c3cc(Nc4ccnc(N5CCC(O)C(F)C5)n4)ncc23)C1 (stereo not shown) [Compound P47]        1.62
 6  CC(C)c1ccc(N2CC(CS(C)(=O)=O)C2)c2cnc(Nc3ccnc(-c4cnn(S(=O)(=O)C5CCOCC5)c4)n3)cc12 [Compound H10]        2.34
 7  COC1CCN(c2nccc(Nc3cc4c(C(C)C)ccc(N5C[C@H](NS(C)(=O)=O)[C@H]5C)c4cn3)n2)CC1F (stereo partly shown) [Compound P38]        0.73
 8  COCCS(=O)(=O)n1cc(-c2nccc(Nc3cc4c(C(C)C)ccc(N5CC(CS(C)(=O)=O)C5)c4cn3)n2)cn1 [Compound H20]        2.27
 9  CC(C)c1ccc(N2C[C@H](NS(C)(=O)=O)[C@H]2C)c2cnc(Nc3ccnc(N4CCC(O)C(F)C4)n3)cc12 (stereo partly shown) [Compound P25]        1.04
10  CC(C)OCCS(=O)(=O)n1cc(-c2nccc(Nc3cc4c(C(C)C)ccc(N5C[C@H](CS(C)(=O)=O)[C@H]5C)c4cn3)n2)cn1 [Compound H32]        2.60

---

# Tested on: Ba/F3-FL-EGFR-del19-C797S
# PROTOCOL_DESCRIPTION: CellTiter-Glo proliferation, Ba/F3-FL-EGFR-del19-C797S
# Assay type: cell-based
# EXPERIMENTAL_CONDITIONS: 72 h, proliferation, 72 hours, CellTiter-Glo; read-out: Ba/F3-FL-EGFR-del19-C797S IC50/nM
Let's look at some compounds and their measured IC50.
QUANTITY_NAME: IC50

> print(dat)
                                    compound  quantity.name  meas.value
 1  CC(C)c1ccc(N2CC(NS(C)(=O)=O)C2)c2cnc(Nc3ccnc(N4CCC(O)C(C)(F)C4)n3)cc12 (stereo not shown)           IC50      265 nM
 2  CC(C)c1ccc(N2CC(CS(C)(=O)=O)C2)c2cnc(Nc3ccnc(-c4cnn(S(=O)(=O)CC5CC5)c4)n3)cc12           IC50       34 nM
 3  CCCS(=O)(=O)NC1CN(c2ccc(C(C)C)c3cc(Nc4ccnc(N5CCC(O)C(F)C5)n4)ncc23)C1 (stereo not shown)           IC50      144 nM
 4  CC(C)c1ccc(N2CC(CS(C)(=O)=O)C2)c2cnc(Nc3ccnc(-c4cnn(CC(F)(F)F)c4)n3)cc12           IC50       97 nM
 5  COCCS(=O)(=O)N(C)C1CN(c2ccc(C(C)C)c3cc(Nc4ccnc(N5CCC(OC)C(F)C5)n4)ncc23)C1 (stereo not shown)           IC50      316 nM
 6  COC1CCN(c2nccc(Nc3cc4c(cn3)c(N3CC(CS(C)(=O)=O)C3)cc(=O)n4C(C)C)n2)CC1F (stereo not shown)           IC50      283 nM
 7  CC(C)c1ccc(N2C[C@H](CS(C)(=O)=O)[C@H]2C)c2cnc(Nc3ccnc(-c4cnn(S(=O)(=O)CCOC5CC5)c4)n3)cc12           IC50       39 nM
 8  CC(C)c1ccc(N2CC(N(C)S(C)(=O)=O)C2)c2cnc(Nc3ccnc(N4CC[C@H](O)[C@H](F)C4)n3)cc12 [Compound P39b]           IC50       60 nM
 9  CC(C)c1ccc(N2CC(N(C)S(C)(=O)=O)C2)c2cnc(Nc3ccnc(-c4cnn(S(=O)(=O)C5CC5)c4)n3)cc12           IC50       11 nM
10  CCS(=O)(=O)NC1CN(c2ccc(C(C)C)c3cc(Nc4ccnc(N5CCC(O)C(F)C5)n4)ncc23)C1 (stereo not shown)           IC50      179 nM
11  COCCS(=O)(=O)n1cc(-c2nccc(Nc3cc4c(C(C)C)ccc(N5C[C@H](CS(C)(=O)=O)[C@H]5C)c4cn3)n2)cn1           IC50      4.3 nM
12  CC(C)c1ccc(N2C[C@H](N(C)S(C)(=O)=O)[C@H]2C)c2cnc(Nc3ccnc(N4CC[C@H](O)[C@H](F)C4)n3)cc12 [Compound P41b]           IC50       35 nM
13  CC(C)c1ccc(N2CC(N3CCCS3(=O)=O)C2)c2cnc(Nc3ccnc(N4CCC(O)C(F)C4)n3)cc12 (stereo not shown)           IC50      234 nM
